- Species on record: Rattus norvegicus
- procedure-text: Open TG-GATES - Regimen: Single
- Format: toxicity, organism-based, Sprague-Dawley
- Set-up: regimen Single, gender Male, age 6 weeks
- reported-conditions: in vivo, po, 0 mg/kg, 24 h, tissue Blood, route gavage, dose level Control
Each record is given condition met if its reported WBC is strictly below 90 x10_2/uL. Records at or above 90 x10_2/uL are given condition not met.

Q: Identify whether the compound `Nc1nc(N)c2nc(-c3ccccc3)c(N)nc2n1` records WBC below 90 x10_2/uL.
Ans: condition met

Q: Here's an entry: `CCSCC[C@H](N)C(=O)O` . Is its WBC below 90 x10_2/uL?
Ans: condition not met

Q: Regarding `C[C@]12CCC(=O)C=C1CC[C@@H]1[C@@H]2CC[C@@]2(C)[C@H]1CC[C@]2(C)O` , kindly confirm whether its WBC is beneath 90 x10_2/uL.
Ans: condition met

Q: # strict comparison: is reported WBC < 90 x10_2/uL? input = `O=C(O)c1cccnc1`
Ans: condition not met
